- Tested on: PC-3 prostate
- Test Protocol: NCI tumour cell line growth inhibition, 48 h
Quantity: TGI

Before answering, review these 6 worked examples.
CCN1C(=O)N(CC)C2C1NN=c1s/c(=C\c3cccnc3)c(=O)n12 (centres undefined)	> 100 µM
COP(=O)(O)/C=C/C(NC(=O)C(Cl)(Cl)Cl)c1ccccc1 (centres undefined)	> 100 µM
O=C(c1ccc(F)cc1)c1cccc(C(=O)c2ccc(F)cc2)n1	> 100 µM
Cc1occc1C(=S)Nc1ccc(Cl)c(COC(C)(C)C)c1	30.6 µM
COC(=O)[C@]12CC[C@@H](C)[C@H](C)[C@@H]1C1=CC[C@@H]3[C@@]4(C)C[C@@H](OC(C)=O)[C@H](O)[C@@](C)(COC(C)=O)[C@@H]4[C@H](O)C[C@@]3(C)[C@]1(C)CC2	7.05 µM
Cc1ccccc1OC(C)C(=O)NN1C(=O)CC(=O)N(c2ccc(Cl)cc2)C1=S (centres undefined)	> 100 µM

Provide TGI for all items below, preserving their order.
1. COc1ccc(N[C@H](CSc2ccc(C)cc2)c2ccc(F)cc2)cc1
2. COc1ccc(/C(=N/O)c2ccccc2-c2nc3ccccc3c(=O)n2-c2ccc(S(=O)(=O)Nc3ncccn3)cc2)cc1C
3. NC(CSCc1ccccc1)C(=O)O (centres undefined)

1: > 100 µM; 2: > 31.6 µM; 3: > 100 µM

---

Exercise: state measured GI50 for each of the compounds provided.
- Test system: BT-549 breast
- Test Protocol: NCI tumour cell line growth inhibition, 48 h

Before answering, review these 3 worked examples.
C[C@H](Nc1ncnc2nc[nH]c12)c1cc2cccc(Cl)c2c(=O)n1-c1ccccc1	1.57 µM
COC(=O)/C=C/C=C(c1ccccc1)c1ccccc1	3.4 µM
COc1c(CCC[P+](c2ccccc2)(c2ccccc2)c2ccccc2)cc2c(c1OC)OCO2	1.24 µM

Provide GI50 for all items below, preserving their order.
1. COc1ccc(N2C(C)=C(C#N)C34C(=O)N(c5ccccc5)C(=O)C3=C(O)C=CC24O)cc1 (stereo unspecified)
2. COC1(C(=O)N[C@@H](C)c2ccc(-n3cc(F)cn3)nc2)CCC(c2nc(C)cc(Nc3cc(C)[nH]n3)n2)CC1 (stereo partly specified)

1. 9.75 µM
2. 0.627 µM

---

- System: A498 renal
- Test Protocol: NCI tumour cell line growth inhibition, 48 h
Exercise: state measured TGI for each of the compounds provided.

CCC[C@H]1C(=O)N=C(N)N1C(=O)OCc1ccccc1	> 100 µM
C=C1[C@@H](O)C[C@@]23CC[C@@H]4[C@@]5(C)CC[C@@H](OC(C)=O)C(C)(C)[C@@H]5C[C@@H](OC5OC(COC(C)=O)C(O)C(O)C5O)[C@@]4(C)C2=CC[C@H]3[C@H]1C (stereo partly drawn)	23.8 µM
CC(C)(C)C1=Cc2cc3cc(C(C)(C)C)[nH]c(=O)c3cc2S(=O)(=O)N1	> 100 µM
COC(=O)CCC(NC(=S)N/N=C(\C)c1nccs1)C(=O)OC (stereo not drawn)	> 100 µM
CCOP(=O)(OCC)C1C(CO)OC(n2ccc(=O)[nH]c2=O)C1O (stereo not drawn)	> 100 µM

Provide TGI for all items below, preserving their order.
1. CCCCCCCCCC[C@H](O)[C@H]1CC[C@H]([C@H]2CC[C@H]([C@H](O)CC[C@H](O)CCCCCCC[C@@H](O)CC3=C[C@H](C)OC3=O)O2)O1
2. CN(CCCN)CCCNc1nc2ccccc2c2[nH]c3ccccc3c12
3. CC1SC(c2c(Cl)cccc2Cl)N(NC(=O)c2[nH]c3ccc(F)cc3c2-c2ccccc2)C1=O (stereo not drawn)

1. > 100 µM
2. 3.08 µM
3. 9.46 µM

---

Exercise: state measured GI50 for each of the compounds provided.
- Test system: K-562 leukemia
- Test Protocol: NCI tumour cell line growth inhibition, 48 h

Before answering, review these 5 worked examples.
CNC(=O)c1cncc(/C=C/c2ccccc2C)c1	> 25 µM
CCCCCn1c(=N)n(CC(O)COc2cccc(C)c2)c2ccccc21 (centres undefined)	2.76 µM
Nc1cc2cccc[n+]2c2cc(Cl)ccc12	3.01 µM
C=C1C(=O)O[C@H]2[C@H]1CC/C(COC(=O)NCc1ccccc1OC)=C\CC[C@@]1(C)O[C@@H]21	0.821 µM
C=CCc1c2c(c(OC)c3ccoc13)C(=O)/C(=C/c1ccccc1OC)O2	3.51 µM

Provide GI50 for all items below, preserving their order.
1. CCN1C(=O)N(CC)C2C1NN=c1s/c(=C\c3cccnc3)c(=O)n12 (centres undefined)
2. COc1ccc(-c2ccc(/C=N/n3c(COc4ccc(Cl)cc4Cl)n[nH]c3=S)o2)c([N+](=O)[O-])c1
3. COc1cc(Cl)cc(-c2nn(C(=O)NCCN3CCOCC3)cc2-c2ccncc2)c1
4. COc1ccc2c(CCCC(c3ccccc3)c3ccccc3)c3[n+](cc2c1OC)CCc1cc2c(cc1-3)OCO2

0.3 µM
19.3 µM
4.12 µM
0.318 µM

---

Exercise: state measured TGI for each of the compounds provided.
- System: T-47D breast
- Test Protocol: NCI tumour cell line growth inhibition, 48 h

Before answering, review these 8 worked examples.
CCCCOc1ccc(NC(N)=Nc2ccc(Cl)cc2)cc1	18.9 µM
Nc1c(C(=O)Nc2cccc([N+](=O)[O-])c2)sc2nc3c(cc12)C(O)CCC3 (centres undefined)	> 100 µM
COc1ccc(-c2ccc(/C=N/n3c(COc4ccc(Cl)cc4Cl)n[nH]c3=S)o2)c([N+](=O)[O-])c1	> 100 µM
O=C(Nc1cccc2cnccc12)c1cc2c(cc1Cl)Sc1nccn1S2(=O)=O	40.8 µM
COc1ccc2nc3cc([N+](=O)[O-])ccc3c(NCCCCCN(C)C)c2c1	1.73 µM
COC(=O)[C@H](Cc1cn(C)cn1)NC(=O)[C@H](Cc1c[nH]c2ccccc12)NC(=O)Nc1cc(C(F)(F)F)cc(C(F)(F)F)c1	> 10 µM
O=C(c1ccccc1)C1N=NCC1c1ccc([N+](=O)[O-])cc1 (centres undefined)	30.9 µM
O=c1c2ncn(C3CC(O)C(CO)O3)c2nnn1Cc1ccccc1[N+](=O)[O-] (centres undefined)	> 100 µM

Provide TGI for all items below, preserving their order.
1. CN(C)c1nc(=NCc2ccncc2)ss1
2. Cc1ccccc1OC(C)C(=O)NN1C(=O)CC(=O)N(c2ccc(Cl)cc2)C1=S (centres undefined)
3. O=C1C(c2c(O)[nH]c3ccc(S(=O)(=O)O)cc23)=Nc2ccccc21
4. Cc1cc2c(C)cc(=O)[nH]c2cc1N
5. O=C(Cn1ccc(=O)[nH]c1=O)Nc1ccc(C(=O)O)c(O)c1
6. c1ccc2c(c1)[nH]c1nc3cc(-c4ccc5nc6c(nc5c4)[nH]c4ccccc46)ccc3nc12

1. > 51.8 µM
2. > 100 µM
3. > 100 µM
4. > 100 µM
5. > 100 µM
6. > 100 µM

Provide TGI for all items below, preserving their order.
1. CC1SC(c2c(Cl)cccc2Cl)N(NC(=O)c2[nH]c3ccc(F)cc3c2-c2ccccc2)C1=O (centres undefined)
2. COP(=O)(O)/C=C/C(NC(=O)C(Cl)(Cl)Cl)c1ccccc1 (centres undefined)
3. Cc1cc(C)c2c(=O)n(CN3CC4Nc5ccccc5C4C3)sc2n1 (centres undefined)
4. Cc1[c-]onc1C.Cc1[c-]onc1C.[Ag].[Ag].[NH-]S(=O)(=O)c1ccc(N=Nc2cc(N=Nc3ccc(S([NH-])(=O)=O)cc3)c3c(NC(=O)C(Cl)Cl)cccc3c2OC(=O)C(Cl)Cl)cc1

1: 14 µM; 2: > 100 µM; 3: > 100 µM; 4: 17.4 µM

Give TGI for the following compound: C=C1C(O)C2(O)OCC34C(CC5C(C)=CC(=O)C(O)C5(C)C23)OC(=O)C(OC(=O)C/C=C(\C)CCCCC)C14 (centres undefined)
< 0.001 µM

---

Exercise: state measured TGI for each of the compounds provided.
- System: SK-MEL-5 melanoma
- Test Protocol: NCI tumour cell line growth inhibition, 48 h
Numbers only, in µM.

Provide TGI for all items below, preserving their order.
1. CCCCn1c2c(n(CCCC)c1=S)-c1c(n(CCCC)c(=S)n1CCCC)S[Se][Se]S2
2. C=C1C(=O)O[C@H]2[C@H]1CC/C(COC(=O)NCc1ccccc1OC)=C\CC[C@@]1(C)O[C@@H]21

1. 19.6
2. 8.03

---

- Tested on: COLO 205 colon
- Test Protocol: NCI tumour cell line growth inhibition, 48 h
Quantity: TGI (µM)
Give bare numbers, in µM.

Before answering, review these 5 worked examples.
O=C1c2ccccc2-c2c1c1ccccc1c(=O)n2CCCNCCCNCCCn1c2c(c3ccccc3c1=O)C(=O)c1ccccc1-2	8.1
C=CCc1c2c(c(OC)c3ccoc13)C(=O)/C(=C/c1ccccc1OC)O2	69.5
COC1(C(=O)N[C@@H](C)c2ccc(-n3cc(F)cn3)nc2)CCC(c2nc(C)cc(Nc3cc(C)[nH]n3)n2)CC1 (stereo not given in full)	23.7
Cc1ccc(/C=C2\CN(C(=O)OC(C)(C)C)C/C(=C\c3ccc(C)cc3)C2=O)cc1	4.08
COC(=O)/C=C/C=C(c1ccccc1)c1ccccc1	13.9

# next compound below
Give TGI for the following compound: C[C@@H](C(=O)Nc1ccc(Cl)cc1)C1CCC(c2ccnc3ccc(F)cc23)CC1 (stereo not given in full)
34
